Entries and their Kd values follow.
TEST TARGET: human MLKL (full length) (Homo sapiens (Human))
Sequence (Q8NB16 whole entry): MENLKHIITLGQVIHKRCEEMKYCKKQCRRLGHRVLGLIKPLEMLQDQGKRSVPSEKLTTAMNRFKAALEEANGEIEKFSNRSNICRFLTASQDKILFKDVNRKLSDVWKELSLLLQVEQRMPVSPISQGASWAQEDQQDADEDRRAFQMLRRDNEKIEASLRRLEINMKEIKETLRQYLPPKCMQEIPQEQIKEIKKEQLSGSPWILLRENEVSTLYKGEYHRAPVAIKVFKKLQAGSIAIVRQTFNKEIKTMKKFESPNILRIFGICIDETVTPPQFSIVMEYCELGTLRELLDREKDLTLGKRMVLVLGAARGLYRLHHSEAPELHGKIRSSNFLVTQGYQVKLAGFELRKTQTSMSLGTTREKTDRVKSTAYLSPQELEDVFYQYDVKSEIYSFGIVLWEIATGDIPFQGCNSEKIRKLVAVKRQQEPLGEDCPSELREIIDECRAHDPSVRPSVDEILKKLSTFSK
PROCEDURE DETAILS: KINOMEscan binding assay, human MLKL (full length)
MEASUREMENT CONDITIONS: hMLKL, Table 25; read-out: MLKL (KD)
Procedure: Binding affinity of the test compounds for human MLKL (full length), mouse MLKL (full length), human RIPK1 and human RIPK3 was determined using the KINOMEscan™ technology developed by DiscoverX (USA; http://www.discoverx.com). The assay was conducted according to manufacturer instructions. Kinase assays. […] The kinase concentration in the eluates was measured by qPCR. […] KD for each test compound was calculated with a standard dose-response curve using the Hill equation (equation (1)): […]

Past entries and their recorded results:
INSERT INTO results (compound, test_target, property_name, result) VALUES
  ('C[C@H](Oc1cc(-c2nn(C)c3c(-c4cnn(C5CCN(C(=O)[C@H]6CC[C@H](Nc7cccc8c7C(=O)N(C7CCC(=O)NC7=O)C8=O)CC6)CC5)c4)cnc(N)c23)ccc1NS(=O)(=O)C(F)F)c1ccc(F)cc1 (stereo partly shown)', 'human MLKL (full length) (Homo sapiens (Human))', 'Kd', '0.01 to 1 µM'),
  ('Cc1ncsc1-c1ccc(CNC(=O)[C@@H]2C[C@@H](O)CN2C(=O)[C@@H](NC(=O)C2(F)CC2)C(C)(C)C)c(OCCOCCOCCOCCn2cc(-c3cnc(N)c4c(-c5ccc(NS(=O)(=O)C(F)F)c(O[C@@H](C)c6ccc(F)cc6)c5)nn(C)c34)cn2)c1', 'human MLKL (full length) (Homo sapiens (Human))', 'Kd', '< 0.01 µM'),
  ('C[C@H](Oc1cc(-c2nn(C)c3c(-c4cnn(C5CCN(C(=O)COC6CCN(c7cccc8c7C(=O)N(C7CCC(=O)NC7=O)C8=O)CC6)CC5)c4)cnc(N)c23)ccc1NS(=O)(=O)C(F)F)c1ccc(F)cc1 (stereo partly shown)', 'human MLKL (full length) (Homo sapiens (Human))', 'Kd', '< 0.01 µM'),
  ('C[C@H](Oc1cc(-c2nn(C)c3c(-c4cnn(C5CCN(C[C@H]6C[C@H](Nc7cccc8c7C(=O)N(C7CCC(=O)NC7=O)C8=O)C6)CC5)c4)cnc(N)c23)ccc1NS(=O)(=O)C(F)F)c1ccc(F)cc1 (stereo partly shown)', 'human MLKL (full length) (Homo sapiens (Human))', 'Kd', '< 0.01 µM');

State its Kd: C[C@H](Oc1cc(-c2nn(C)c3c(-c4cnn(C5CCN(CC6CCN(c7cccc8c7C(=O)N(C7CCC(=O)NC7=O)C8=O)CC6)CC5)c4)cnc(N)c23)ccc1NS(=O)(=O)C(F)F)c1ccc(F)cc1 (stereo partly shown)
< 0.01 µM

State its Kd: Cc1ncsc1-c1ccc(CNC(=O)[C@@H]2C[C@@H](O)CN2C(=O)[C@@H](NC(=O)C2(F)CC2)C(C)(C)C)c(OCCCCCn2cc(-c3cnc(N)c4c(-c5ccc(NS(=O)(=O)C(F)F)c(O[C@@H](C)c6ccc(F)cc6)c5)nn(C)c34)cn2)c1
0.01 to 1 µM

State its Kd: C[C@H](Oc1cc(-c2nn(C)c3c(-c4cnn(C5CCN(C(=O)[C@H]6C[C@@H](Nc7cccc8c7C(=O)N(C7CCC(=O)NC7=O)C8=O)C6)CC5)c4)cnc(N)c23)ccc1NS(=O)(=O)C(F)F)c1ccc(F)cc1 (stereo partly shown)
0.01 to 1 µM

State its Kd: C[C@H](Oc1cc(-c2nn(C)c3c(-c4cnn(C5CCN(C(=O)COc6cccc7c6C(=O)N(C6CCC(=O)NC6=O)C7=O)CC5)c4)cnc(N)c23)ccc1NS(=O)(=O)C(F)F)c1ccc(F)cc1 (stereo partly shown)
< 0.01 µM

State its Kd: Cc1ncsc1-c1ccc(CNC(=O)[C@@H]2C[C@@H](O)CN2C(=O)[C@@H](NC(=O)COCCN2CCCC(n3cc(-c4cnc(N)c5c(-c6ccc(NS(=O)(=O)C(F)F)c(O[C@@H](C)c7ccc(F)cc7)c6)nn(C)c45)cn3)C2)C(C)(C)C)cc1 (stereo partly shown)
< 0.01 µM

State its Kd: C[C@H](Oc1cc(-c2nn(C)c3c(-c4cnn(C5CCN(C(=O)[C@H]6C[C@H](Nc7cccc8c7C(=O)N(C7CCC(=O)NC7=O)C8=O)C6)CC5)c4)cnc(N)c23)ccc1NS(=O)(=O)C(F)F)c1ccc(F)cc1 (stereo partly shown)
< 0.01 µM

State its Kd: Cc1ncsc1-c1ccc(CNC(=O)[C@@H]2C[C@@H](O)CN2C(=O)[C@@H](NC(=O)CCN2CC(n3cc(-c4cnc(N)c5c(-c6ccc(NS(=O)(=O)C(F)F)c(O[C@@H](C)c7ccc(F)cc7)c6)nn(C)c45)cn3)C2)C(C)(C)C)cc1
< 0.01 µM

State its Kd: C[C@H](Oc1cc(-c2nn(C)c3c(-c4cnn(C5CCN(C(=O)CC(=O)N6CCN(c7cccc8c7C(=O)N(C7CCC(=O)NC7=O)C8=O)CC6)CC5)c4)cnc(N)c23)ccc1NS(=O)(=O)C(F)F)c1ccc(F)cc1 (stereo partly shown)
< 0.01 µM

State its Kd: COc1ccc(C(=O)N2CCC(n3cc(-c4cnc(N)c5c(-c6ccc(NS(=O)(=O)C(F)F)c(O[C@@H](C)c7ccc(F)cc7)c6)nn(C)c45)cn3)CC2)cc1N1CCC(=O)NC1=O
< 0.01 µM

State its Kd: CN[C@@H](C)C(=O)N[C@H](C(=O)N1C[C@H](NC(=O)CCCCCCn2cc(-c3cnc(N)c4c(-c5ccc(NS(=O)(=O)C(F)F)c(O[C@@H](C)c6ccc(F)cc6)c5)nn(C)c34)cn2)C[C@H]1C(=O)Nc1c(F)cccc1F)C(C)(C)C
< 0.01 µM

State its Kd: C[C@H](Oc1cc(-c2nn(C)c3c(-c4cnn(C5CCN(C(=O)CCC6CCN(c7cccc8c7C(=O)N(C7CCC(=O)N(C)C7=O)C8=O)CC6)CC5)c4)cnc(N)c23)ccc1NS(=O)(=O)C(F)F)c1ccc(F)cc1 (stereo partly shown)
< 0.01 µM

State its Kd: C[C@H](Oc1cc(-c2nn(C)c3c(-c4cnn(C5CCN(C(=O)C6CC(N(C)c7cccc8c7C(=O)N(C7CCC(=O)NC7=O)C8=O)C6)CC5)c4)cnc(N)c23)ccc1NS(=O)(=O)C(F)F)c1ccc(F)cc1 (stereo partly shown)
< 0.01 µM
